Please go through the items and note down their TR-FRET-IKZF2 (Normalized to CC-885).
Target Under Test: CRBN and Helios (IKZF2) (Homo sapiens, UniProt Q96SW2+Q9UKS7)
Construct: His (N); Strep (N)
Sequence (Q96SW2 whole entry): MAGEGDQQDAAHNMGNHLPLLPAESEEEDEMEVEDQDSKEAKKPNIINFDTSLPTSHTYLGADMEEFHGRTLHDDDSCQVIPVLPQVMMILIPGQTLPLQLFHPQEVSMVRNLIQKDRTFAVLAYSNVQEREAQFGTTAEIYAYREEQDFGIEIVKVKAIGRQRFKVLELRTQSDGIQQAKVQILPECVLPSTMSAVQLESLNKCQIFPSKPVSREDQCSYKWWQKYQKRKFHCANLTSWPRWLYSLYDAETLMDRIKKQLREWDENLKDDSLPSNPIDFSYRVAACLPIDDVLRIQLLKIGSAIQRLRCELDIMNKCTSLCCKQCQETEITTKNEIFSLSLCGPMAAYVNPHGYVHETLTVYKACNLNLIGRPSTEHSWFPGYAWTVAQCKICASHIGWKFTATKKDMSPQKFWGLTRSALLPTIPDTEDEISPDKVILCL
Sequence (Q9UKS7 whole entry): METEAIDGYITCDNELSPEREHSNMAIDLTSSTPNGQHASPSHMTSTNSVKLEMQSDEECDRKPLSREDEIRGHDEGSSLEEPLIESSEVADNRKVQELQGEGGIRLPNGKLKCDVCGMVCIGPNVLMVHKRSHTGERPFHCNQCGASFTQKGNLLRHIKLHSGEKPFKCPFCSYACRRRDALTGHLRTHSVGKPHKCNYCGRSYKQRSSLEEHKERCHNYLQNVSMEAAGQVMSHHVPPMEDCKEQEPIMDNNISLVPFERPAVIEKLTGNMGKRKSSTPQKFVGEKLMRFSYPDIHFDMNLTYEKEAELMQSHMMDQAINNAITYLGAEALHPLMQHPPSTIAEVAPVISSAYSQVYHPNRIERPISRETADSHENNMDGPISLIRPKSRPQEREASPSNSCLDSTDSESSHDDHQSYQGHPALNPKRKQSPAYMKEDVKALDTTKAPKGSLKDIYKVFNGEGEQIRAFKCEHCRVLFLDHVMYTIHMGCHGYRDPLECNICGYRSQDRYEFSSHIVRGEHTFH
Measurement Notes: TR-FRET dimerization assay (CRBN-IKZF2 ternary complex formation)
Type: binding
Experimental Parameters: compound concentration 6.6667E−07 (667 nM); n=1
Enter the number alone.

Would you kindly share the measured TR-FRET-IKZF2 (Normalized to CC-885) for Cc1ccc(NC(=O)NCc2cccc(NC3=CC(=O)N(C4CCC(=O)NC4=O)C3=O)c2)cc1Cl (stereo not shown) [Compound 44] ? 1.119

Would you kindly share the measured TR-FRET-IKZF2 (Normalized to CC-885) for O=C1CCC(N2C(=O)C=C(Nc3cnc4ccccc4c3)C2=O)C(=O)N1 (stereo not shown) [Compound 27] ? 0.084

Would you kindly share the measured TR-FRET-IKZF2 (Normalized to CC-885) for O=C1CCC(N2C(=O)C=C(Nc3cccc(-c4nnn[nH]4)c3)C2=O)C(=O)N1 (stereo not shown) [Compound 23] ? 0.196

Would you kindly share the measured TR-FRET-IKZF2 (Normalized to CC-885) for Cc1ccc(NC(=O)CC(C)c2cccc(NC3=CC(=O)N(C4CCC(=O)NC4=O)C3=O)c2)cc1Cl (stereo not shown) [Compound 137] ? 1.665

Would you kindly share the measured TR-FRET-IKZF2 (Normalized to CC-885) for Cc1ccc(NC(=O)N(C)Cc2cccc(NC3=CC(=O)N(C4CCC(=O)NC4=O)C3=O)c2)cc1Cl (stereo not shown) [Compound 52] ? 1.205

Would you kindly share the measured TR-FRET-IKZF2 (Normalized to CC-885) for CCOC(=O)c1cccc(NC2=CC(=O)N(C3CCC(=O)NC3=O)C2=O)c1 (stereo not shown) [Compound 30] ? 0.228

Would you kindly share the measured TR-FRET-IKZF2 (Normalized to CC-885) for O=C1CCC(N2C(=O)C=C(Nc3ccccc3)C2=O)C(=O)N1 (stereo not shown) [Compound 2] ? 0.286

Where do the numbers come from? From patent US12227488B2.
